# maps each entry to its Population Hoechst High Intensity Objects (%)
tested on: U2OS; test: Multiplex assay against U2OS; type: toxicity, cell-based; details: human, 24 h, 1 µM, compound concentration 1 uM, replicate 2
Return type: number; implicit unit %.

# Molecule, Observed result
records = [
    ("Cl.O=C(O)c1cc(-c2ccc(C3CCNCC3)cc2)c2ccc(-c3ccc(C(F)(F)F)cc3)cc2c1", 3),
]

[ask] Entry COc1ccc(-c2ccc3ncc4c(c3c2)n(-c2ccc(N3CCNCC3)c(C(F)(F)F)c2)c(=O)n4C)cn1.O=C(O)/C=C\C(=O)O [BGT-226] , system U2OS: what Population Hoechst High Intensity Objects (%) was measured?
[reply] 30
